For each record, write down the corresponding microsomal CLint at 1 µM.
# Assay Protocol: Intrinsic clearance in Wistar rat liver microsomes at 1 uM by LC-MS/MS analysis measured per mg of protein
# Assay type: ADME, Microsome
One number for each entry, in µL/min/mg.

Molecule	Observed Measurement
CCC/N=C1\S/C(=C\c2ccc(OCCO)c(Cl)c2)C(=O)N1c1ccccc1C	166
CC(C)/N=C1\S/C(=C\c2ccc(OCCO)cc2)C(=O)N1c1ccccc1	4
CCC/N=C1\S/C(=C\c2ccc(OC[C@@H](O)CO)c(Cl)c2)C(=O)N1c1ccccc1C	56
CCC/N=C1\S/C(=C\c2ccc(O)c(Cl)c2)C(=O)N1c1ccccc1C	229
CC(C)/N=C1\S/C(=C\c2ccc(O)c(Cl)c2)C(=O)N1c1ccccc1	67
CCC/N=C1\S/C(=C\c2ccc(OCC(O)CO)c(Cl)c2)C(=O)N1c1ccccc1C (racemic)	27

Now for a further molecule.
Give its microsomal CLint at 1 µM value. Item: Cc1ccccc1N1C(=O)/C(=C/c2ccc(O)c(Cl)c2)S/C1=N\C(C)C
158

====

# Measured Target: Sphingosine 1-phosphate receptor 3 (Homo sapiens)
# Sequence (Q99500 whole entry): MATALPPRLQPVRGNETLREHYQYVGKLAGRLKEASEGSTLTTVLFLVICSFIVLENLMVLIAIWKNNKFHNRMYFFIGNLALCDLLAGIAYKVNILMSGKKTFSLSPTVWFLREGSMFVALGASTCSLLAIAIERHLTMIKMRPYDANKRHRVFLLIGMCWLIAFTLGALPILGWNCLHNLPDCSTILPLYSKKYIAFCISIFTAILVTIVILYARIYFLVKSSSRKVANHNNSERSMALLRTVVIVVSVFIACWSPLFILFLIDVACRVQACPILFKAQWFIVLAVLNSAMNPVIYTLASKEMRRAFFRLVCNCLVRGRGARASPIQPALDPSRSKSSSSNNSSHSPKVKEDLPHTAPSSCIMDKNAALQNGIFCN
# Assay Protocol: Agonist activity at human recombinant S1P3 receptor expressed in HEK cells by GTPgammaS binding assay
# Type: functional, HEK293
Assay Metric: EC50

Structure Notation	Measured Target	Assay Metric	Observed Measurement
CCCCCCCCCCCCC/C=C/[C@@H](O)[C@@H](N)COP(=O)(O)O	Sphingosine 1-phosphate receptor 3 (Homo sapiens)	EC50	0.7 nM

Now for a further compound.
Record lookup: for Sphingosine 1-phosphate receptor 3 (Homo sapiens), what EC50 belongs to CCC/N=C1\S/C(=C\c2ccc(OC[C@@H](O)CO)c(Cl)c2)C(=O)N1c1ccccc1C ?
105 nM

====

# Measured Target: UniProtKB Q99500
# Assay Protocol: Agonist activity at human recombinant S1P3 receptor expressed in CHO cells by GTPgammaS binding assay
# Format: functional, cell-based
For each record, write down the corresponding pEC50.
Numbers only, as −log10 of the molar value.

Compound	Measured Target	pEC50
CN(C)/N=C1\S/C(=C\c2ccc(O)c(Cl)c2)C(=O)N1c1ccccc1	UniProtKB Q99500	6.85
CC(C)/N=C1\S/C(=C\c2ccccc2Cl)C(=O)N1c1ccccc1	UniProtKB Q99500	5.59
CCC/N=C1\S/C(=C\c2ccc(OCCO)c(Cl)c2)C(=O)N1c1ccccc1C	UniProtKB Q99500	6.91
CC(C)/N=C1\S/C(=C\c2ccc(CCO)cc2)C(=O)N1c1ccccc1	UniProtKB Q99500	7.23
COc1ccc(/C=C2\S/C(=N\C(C)C)N(c3ccccc3)C2=O)cc1	UniProtKB Q99500	6.97
Cc1ccc(N2C(=O)/C(=C/c3ccc(O)c(Cl)c3)S/C2=N\C(C)C)cc1	UniProtKB Q99500	7.06

Give pEC50 for all compounds that follow.
1. CCC(C)/N=C1\S/C(=C\c2ccc(O)c(Cl)c2)C(=O)N1c1ccccc1 (racemic)
2. CC(C)/N=C1\S/C(=C\c2ccc(O)c(Cl)c2)C(=O)N1c1cccc(Cl)c1
3. CCc1ccccc1N1C(=O)/C(=C/c2ccc(O)c(Cl)c2)S/C1=N\C(C)C
4. CCC/N=C1\S/C(=C\c2ccc(O)c(Cl)c2)C(=O)N1c1ccccc1

1: 7.23; 2: 6.89; 3: 6.47; 4: 6.72

Give pEC50 for all compounds that follow.
1. CC(C)/N=C1\S/C(=C\c2ccc(CO)cc2)C(=O)N1c1ccccc1
2. CC(C)/N=C1\S/C(=C\c2ccc(O)c(Cl)c2)C(=O)N1CCc1ccccc1
3. C/N=C1\S/C(=C\c2ccc(O)c(Cl)c2)C(=O)N1c1ccccc1
4. Cc1cc(/C=C2\S/C(=N\C(C)C)N(c3ccccc3)C2=O)ccc1O
5. COc1cc(/C=C2\S/C(=N\C(C)C)N(c3ccccc3)C2=O)ccc1O
6. CC(C)/N=C1\S/C(=C\c2ccccc2)C(=O)N1c1ccccc1

1: 7.07; 2: 6.74; 3: 5.06; 4: 7.30; 5: 6.47; 6: 6.50

Give pEC50 for all compounds that follow.
1. CC(C)/N=C1\S/C(=C\c2ccc(O)c(Cl)c2)C(=O)N1c1ccccc1Cl
2. Cc1ccc(N2C(=O)/C(=C/c3ccc(O)c(Cl)c3)S/C2=N\C(C)C)cc1Cl
3. Cc1ccccc1/C=C1\S/C(=N\C(C)C)N(c2ccccc2)C1=O

[6.37, 6.84, 5.24]

Give its pEC50 value. Item: CCC/N=C1\S/C(=C\c2ccc(OC[C@@H](O)CO)c(Cl)c2)C(=O)N1c1ccccc1C
6.91

Measured values drawn from ChEMBL document CHEMBL1157829 for this set.
